Endpoint summary: pKi, system: Metabotropic glutamate receptor 5 (Rattus norvegicus, UniProt P31424), multiple sources combined.
pKi: −log10 of the molar value.

# smilesRepr, recordedEndpoint, endpointValue
measured = [
    ("COc1cccc(S(=O)(=O)c2cnc3ccc(C)cc3c2N2CCC(C)CC2)c1", "pKi", "> 6.70"),
    ("O=S(=O)(c1ccc(F)c(Cl)c1)c1cnc2cc(Cl)ccc2c1-c1ccc(F)cc1", "pKi", "> 6.70"),
    ("Cc1ccc(-c2c(S(=O)(=O)c3cccc(C)c3)sc3ncccc23)cc1", "pKi", "> 6.30"),
]

Inquiry: Write down measured pKi (Metabotropic glutamate receptor 5 (Rattus norvegicus, UniProt P31424)) for this compound. O=S(=O)(c1ccc(F)c(Cl)c1)c1cnc2ccc(F)cc2c1-c1ccc(F)cc1
Reply text: > 6.70

Inquiry: Write down measured pKi (Metabotropic glutamate receptor 5 (Rattus norvegicus, UniProt P31424)) for this compound. N#Cc1cc(F)cc(S(=O)(=O)c2cnc3ccccc3c2-c2ccc(F)cc2)c1
Reply text: > 6.70

Inquiry: Write down measured pKi (Metabotropic glutamate receptor 5 (Rattus norvegicus, UniProt P31424)) for this compound. Cc1ccc2ncc(S(=O)(=O)c3cc(Cl)cc(Cl)c3)c(N3CCOCC3)c2c1
Reply text: 6.30 to 6.70
